Source listed as the supplement of paper PMC13380429.

- System: Calu-3
- Assay comment: cell viability relative to DMSO; higher = less toxic
- Cond: 72 h; 100 nM
Property label: cell viability (%)

• CCN1CCC(n2cc(CNc3cc(Cl)c4ncc(C#N)c(Nc5ccc(F)c(Cl)c5)c4c3)nn2)CC1 = 111
• CC[C@H]1OC(=O)[C@H](C)[C@@H](O[C@H]2C[C@@](C)(OC)[C@@H](O)[C@H](C)O2)[C@H](C)[C@@H](O[C@@H]2O[C@H](C)C[C@H](N(C)C)[C@H]2O)[C@](C)(OC)C[C@@H](C)C(=O)[C@H](C)[C@@H](O)[C@]1(C)O = 94.5
• Cc1cccc(/C=C/c2ccccc2)n1 = 99.2
• CC1(C)S[C@@H]2[C@H](NC(=O)COc3ccccc3)C(=O)N2[C@H]1C(=O)O = 101
• CC(CCc1ccccc1)NC(C)C(O)c1ccc(O)cc1 (configuration not stated) = 99.3
• O=[N+]([O-])c1cccc2c(Br)n[nH]c12 = 97.3
• O=C1NC(=O)C(c2cnc3ccccn23)=C1c1cn2c3c(cc(F)cc13)CN(C(=O)N1CCCCC1)CC2 = 80

====

- Tested on: U2OS
- Assay comment: cell viability relative to DMSO; higher = less toxic
- Cond: 72 h; 1000 nM
Below, each entry is listed with its recorded cell viability.
Property label: cell viability (%)

• NCCc1ccc(O)c(O)c1 [dopamine] = 100
• NS(=O)(=O)c1ccc2c(c1)C1C=CCC1C(c1ccc(Br)cc1)N2 (stereo not given) [4BP-TQS] = 96.6
• Cn1c(=O)c2c(ncn2CCO)n(C)c1=O [etofylline] = 98.8
• CC(=O)c1c(O)cc(C)oc1=O [dehydroacetic-acid] = 103
• O=C(O)c1ccccc1Nc1cc(Cl)ccc1C(=O)O [lobenzarit] = 96.9
• O=C(O)c1cccnc1Nc1cccc(C(F)(F)F)c1 [niflumic-acid] = 106
• CCC(=O)O[C@@H](O[P@@](=O)(CCCCc1ccccc1)CC(=O)N1C[C@H](C2CCCCC2)C[C@H]1C(=O)O)C(C)C [fosinopril] = 97.7
• CN(C)C(=O)N[C@H]1CC[C@H](CCN2CCN(c3cccc(Cl)c3Cl)CC2)CC1 [cariprazine] = 95.9
• Cc1cccc(/C=C/c2ccccc2)n1 [SIB-1893] = 103
• N=C(C[C@@H](O)COc1ccccc1-c1ccccc1)N1CCCCC1 = 102

====

- Test system: Calu-3
- Assay comment: cell viability relative to DMSO; higher = less toxic
- Cond: 72 h; 1 nM
Property label: cell viability (%)

* CC(C)Nc1nc2cc(Cl)c(Cl)cc2n1[C@H]1O[C@@H](CO)[C@H](O)[C@@H]1O | 96.4
* O=C(CC12CC3CC(CC(C3)C1)C2)Nc1cccc2nc(NCCNCCO)ccc12 | 99
* Cc1cc(-c2ccc(/N=N/c3ccc4c(S(=O)(=O)O)cc(S(=O)(=O)O)c(N)c4c3O)c(C)c2)ccc1/N=N/c1ccc2c(S(=O)(=O)O)cc(S(=O)(=O)O)c(N)c2c1O | 92.8
* O=C(O)[C@]1(Cc2cccc(Nc3nccs3)n2)CC[C@@H](Oc2cccc(Cl)c2F)CC1 | 98.6
* O=C(O)c1ccccc1Nc1cc(Cl)ccc1C(=O)O | 111
* COc1ccc2[nH]cc(CCNC(C)=O)c2c1 | 101
* Cc1cc(Nc2nc(N[C@@H](C)c3ccc(F)cc3)c(C#N)cc2F)n[nH]1 | 118
* CC(N)Cc1ccc(O)cc1 (stereo not drawn) [hydroxyamphetamine] | 92.5
